System: HS 578T breast
Experiment: NCI tumour cell line growth inhibition, 48 h
measured.metric: TGI (µM)
Output spec: scalar in µM, unitless text.

{"compound": "O=C(COC(=O)c1ccccc1)c1ccc(Br)cc1", "system.tested": "HS 578T breast", "units.symbol": "µM", "TGI": 29.6}
{"compound": "Cc1nc(NC(=S)Nc2ccc(F)cc2)sc1C(=O)NNC(=S)Nc1ccc(F)cc1", "system.tested": "HS 578T breast", "units.symbol": "µM", "TGI": 38}
{"compound": "CCOP(=O)(OCC)C(Cc1ccccc1)N=C(c1ccccc1)c1ccccc1 (stereo not given)", "system.tested": "HS 578T breast", "units.symbol": "µM", "TGI": 26.6}

In: Dear colleague, please send me the reported TGI for COc1cccc2c1C(=O)c1ccc3cc(CO)cc(O)c3c1C2=O when you can.
Out: 9.59

In: Provide TGI value for the following compound: C/C(=N/NC(=S)N(Cc1ccccn1)Cc1ccccn1)c1cnccn1
Out: 55.7

In: // Input: Cc1cc2nc3c(C(O)CO)nn(-c4ccccc4)c3nc2cc1C (stereo not given) . Output its TGI only.
Out: 70.9

In: Quick one: give measured TGI for O=[N+]([O-])/C(C(Cl)=C(Cl)Cl)=C(/Sc1ccccc1)N1CCOCC1
Out: 59.5

In: Supply recorded TGI for c1ccc2c(Cc3c[nH]c4ccccc34)c[nH]c2c1 here.
Out: 63.3
